experiment: folding stability dG unfold from chymotrypsin proteolysis; higher = more stable
Value Kind: folding stability dG unfold (kcal/mol)
Express the result in kcal/mol but write the number alone.

Illustrative cases are given below, each with its answer.
{"Chain": "SSEKEVEVTIKIPLYYERPDGTIEEYDIEIKVKVKIDNGGFIAENLEEAIREVLEKLNIPEGHPDAPYFNKS [r1_175_TrMRF]", "Recorded Number": 0.155}
{"Chain": "SAGGGPVVLTDPVKTEKSPDGTTYTLTREVFYDPSRGEPLKVRFTLTKVTNYPDGVKTETLEEKEVALSAGG [r13_596_JUSTAS]", "Recorded Number": 1.33}
{"Chain": "SAGGMTVTVPFTSEEELEAAIEAAPSSLTTVTTTDPARGLRRTLNVDPATRAVVETEEEAVDPEDPALSAGG [r13_945_JUSTAS]", "Recorded Number": -0.377}
{"Chain": "SAEEAAKNFKPIRIRLRDPRGRLYEVERIELTPDGRLLITLRLPNETRTYLIEPDHPFPLPPDLIIEVEGSA [r9_993_TrMRF]", "Recorded Number": 3.59}
{"Chain": "SAGGEFEVEELPPGGLLLVTFRAPADLPLEIPLEFTSPDGSPVEVAEYEREPFGDYVLITVLVRVPDSAGGS [r16_499_TrMRF]", "Recorded Number": 2.77}

QUERY: Entry SAGGSAGGSWVRDADGKPIPFKIDSVETKEENNPNGNRYYEIEARFPDNGKEFKATIPADDIKSAGGSAGGS [r12_823_TrROS] needs its folding stability dG unfold filled in; supply it.
RESULT: 0.526

QUERY: Entry SAGGSAGGSAGPVKTVEVEIPGMSEEELLALLPPGVKRVEIEREEVEPGRVRLRIKVYEESAGGSAGGSAGG [r11_1002_TrROS_Hall] needs its folding stability dG unfold filled in; supply it.
RESULT: 1.3

QUERY: Entry SKKVKIVIKIKVEVTNKDGKKKTFEFTLVIELSEEEIEKLKKKIEDLLNELKKKYPNIKKVEITEIKILPSA [r9_436_TrROS_Hall] needs its folding stability dG unfold filled in; supply it.
RESULT: 4.4

QUERY: Entry SAPMKIVKKTDNTLYIYDKKTKKIVKITINDGTITVEEITYDKKTKEKKVETKTIKLSEEQLKKLKKLLSAG [r14_245_TrROS_Hall] needs its folding stability dG unfold filled in; supply it.
RESULT: 0.7
